- Assay method text: chemical genetic growth profiling, strain panel (AID 1159580);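 note: tested at 20 µM; growth read once vehicle control cultures reached saturation at 30 °C; 1 = growth at the plate median or of vehicle wells; lower values mean less growth of the strain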
- Condition context: S. cerevisiae deletion strains, growth OD, locus YEL037C, strain rad23, hits give low values
Screen size: about 5,500 compounds; about 2,000 (36%) were called active. Roughly 18% stayed inconclusive and do not appear here. The list shows a part of the results.
Assay readout: normalized growth
Give the value as a plain number.

Known results for compounds:
CC(C)C(C)/C=C/C(C)[C@H]1CCC2C3=CCC4CC(=O)CC[C@]4(C)C3CC[C@@]21C (some centres not stated)	1
COc1cc2c(cc1OC)C1Cc3ccc(OC)c(OC)c3CN1CC2 (configuration not stated)	0.982
CC(=O)OC1CCC2(C)C(=CC=C3C2CCC2(C)C3CCC2C(C)/C=C/C(C)C(C)C)C1(C)C (configuration not stated)	1.02
Cc1cc(NC(=O)C2=C(O)c3ccccc3S(=O)(=O)N2C)no1	0.961
COc1c2ccoc2c(OC)c2oc(=O)ccc12	0.976

Asked: Value lookup for normalized growth; key = COC(=O)C(C)c1ccc(C(=O)c2cccs2)cc1 (configuration not stated)
Given back: 1

Asked: Same question, CC(C)COCC(CN(Cc1ccccc1)c1ccccc1)N1CCCC1 (configuration not stated) this time
Given back: 1.03

Asked: Would you mind doing `COc1cc([C@@H]2c3cc4c(c(O)c3C[C@H]3COC(=O)[C@@H]32)OCO4)cc(OC)c1OC` as well?
Given back: 0.993
